Protocol details: in vitro inhibition against NHE to inhibit the acid induced swelling in human platelets by 50%
Format: functional
Reported endpoint: IC50 (nM)

                              smiles_string  reported_endpoint  recorded_result
0  CS(=O)(=O)O.CS(=O)(=O)O.Cc1ccnc2c1/C(=N/N=C(N)N)C[C@H](c1ccccc1Cl)C2               IC50                9

a = CS(=O)(=O)O.CS(=O)(=O)O.Cc1ccnc2c1/C(=N/N=C(N)N)C[C@H](c1cc(Cl)sc1Cl)C2
b = CS(=O)(=O)O.CS(=O)(=O)O.Cc1ccc(F)cc1[C@H]1C/C(=N\N=C(N)N)c2c(C)ccnc2C1
// task: argmin of IC50 over [ a , b ] // respond with label for picked entry a
